assay name: Calculation of hydrogel mesh size from equilibrium swelling data
Type: physicochemical
study conditions: equilibrium-swollen gels
parameter measured: Calculated mesh size (nm)

* CCOC(=O)C1=C(C(F)(F)F)C2C=CC1(CNC(=O)CCCC(=O)NCC13C=CC(O1)C(C(F)(F)F)=C3C(=O)OCC)O2 | 13.1
* COC(=O)C1=C(C(=O)OC)C2(CNC(=O)CCOCC(COCCC(=O)NCC34C=CC(O3)C(C(=O)OC)=C4C(=O)OC)(COCCC(=O)NCC34C=CC(O3)C(C(=O)OC)=C4C(=O)OC)COCCC(=O)NCC34C=CC(O3)C(C(=O)OC)=C4C(=O)OC)C=CC1O2 (stereo not drawn) | 13.3
* COC(=O)C1=C(C(=O)OC)C2(CNC(=O)CCCC(=O)NCC34OC(C(C(=O)OC)=C3C(=O)OC)C3OC34)OC1C1OC12 (stereo not drawn) | 14.0

###

assay name: Equilibrium swelling, gel fraction and Mc (Flory-Rehner) of PEG-OND hydrogels
Assay type: physicochemical
study conditions: mass of dry residue post-swelling/input mass of OND and 4-PEG-SH
Gel Fraction: recorded values
parameter measured: Gel Fraction

* CCOC(=O)C1=C(C(F)(F)F)C2C=CC1(CNC(=O)CCCC(=O)NCC13C=CC(O1)C(C(=O)OC)=C3C(=O)OC)O2 (stereo not drawn) | 0.98
* COC(=O)C1=C(C(=O)OC)C2(CNC(=O)CCCC(=O)NCC34C=CC(O3)C(C(=O)OC)=C4C(=O)OC)C=CC1O2 | 0.91
* COC(=O)C1=C(C(=O)OC)C2(CNC(=O)CC(O)(CC(=O)NCC34C=CC(O3)C(C(=O)OC)=C4C(=O)OC)C(=O)NCC34C=CC(O3)C(C(=O)OC)=C4C(=O)OC)C=CC1O2 (stereo not drawn) | 0.98
* COC(=O)C1=C(C(=O)OC)C2(CNC(=O)CCCC(=O)NCC34OC(C(C(=O)OC)=C3C(=O)OC)C3OC34)OC1C1OC12 (stereo not drawn) | 0.97
* CCOC(=O)C1=C(C(F)(F)F)C2C=CC1(CNC(=O)CCCC(=O)NCC13C=CC(O1)C(C(F)(F)F)=C3C(=O)OCC)O2 | 0.96
* COC(=O)C1=C(C(=O)OC)C2(CNC(=O)CCOCC(COCCC(=O)NCC34C=CC(O3)C(C(=O)OC)=C4C(=O)OC)(COCCC(=O)NCC34C=CC(O3)C(C(=O)OC)=C4C(=O)OC)COCCC(=O)NCC34C=CC(O3)C(C(=O)OC)=C4C(=O)OC)C=CC1O2 (stereo not drawn) | 0.96

###

parameter measured: melting point

• CCOC(=O)C1=C(C(F)(F)F)C2C=CC1(CNC(=O)CCCC(=O)NCC13C=CC(O1)C(C(=O)OC)=C3C(=O)OC)O2 (stereo not shown) [Linker 10] = 93 to 97 °C
• CCOC(=O)C1=C(C(F)(F)F)C2C=CC1(CNC(=O)CCCC(=O)NCC13C=CC(O1)C(C(F)(F)F)=C3C(=O)OCC)O2 [Linker 7b] = 166 to 169 °C
• COC(=O)C1=C(C(=O)OC)C2(CNC(=O)CCCC(=O)NCC34C=CC(O3)C(C(=O)OC)=C4C(=O)OC)C=CC1O2 [Linker 7a] = 163 to 167 °C
• COC(=O)C1=C(C(=O)OC)C2(CNC(=O)CCCC(=O)NCC34OC(C(C(=O)OC)=C3C(=O)OC)C3OC34)OC1C1OC12 (stereo not shown) [Linker 8] = 125 to 130 °C

Ref: patent US10517952B2
